biological target: HLA-A*02:01 (Homo sapiens, UniProt P04439, D140Y/D185E/D98H/E176V/E277Q/G131W/G231S/I119V/I121R/I166T/I218V/L300P/L318F/N151K/N90K/P208A/P217A/Q86G/Q94H/R138H/R169H/T345S); test: MHC binding assay (UV-ligand exchange, beta2m ELISA); details: binding to HLA-A*02:01 ranged by peptide exchange yield (UV-ligand exchange, β2m ELISA)
readout-label: Peptide exchange

A selection of reference data follows.
1. 582 (TLCDVILMV; listed as Homo sapiens) [compound 582]: “+++” (≥50 = +++)
2. 121 (GVVDPRAISVL; listed as Homo sapiens) [compound 121]: “++” (≥20% = ++)
3. 279 (ALWGGTQPLL; listed as Homo sapiens) [compound 279]: “++” (≥20% = ++)
4. 353 (YLFEMDSSL; listed as Homo sapiens) [compound 353]: “++” (≥20% = ++)

Now look at this one.
Endpoint output: Peptide exchange of 81 (FLFSQLQYL; listed as Homo sapiens) [compound 81] . Value?
“++” (≥20% = ++)

###

target: HLA-A*02:01 (Homo sapiens, UniProt P04439, D140Y/D185E/D98H/E176V/E277Q/G131W/G231S/I119V/I121R/I166T/I218V/L300P/L318F/N151K/N90K/P208A/P217A/Q86G/Q94H/R138H/R169H/T345S); experiment: MHC binding assay (UV-ligand exchange, beta2m ELISA); conditions: binding to HLA-A*02:01 ranged by peptide exchange yield (UV-ligand exchange, β2m ELISA)
readout-label: Peptide exchange

// below: answered substances
1. 501 (LLDPNVKSIFV; listed as Homo sapiens) [compound 501]: “+++” (≥50 = +++)
2. 192 (KMLDGASFTL; listed as Homo sapiens) [compound 192]: “+++” (≥50 = +++)
3. 67 (TLLAEALVTV; listed as Homo sapiens) [compound 67]: “+++” (≥50 = +++)
4. 602 (YLLEQIKLIEV; listed as Homo sapiens) [compound 602]: “++++” (≥75% = ++++)

For 576 (ILLNNSGQIKL; listed as Homo sapiens) [compound 576] , what is its reported Peptide exchange?
“++++” (≥75% = ++++)

Please look up its Peptide exchange: 487 (LLINSVFHV; listed as Homo sapiens) [compound 487]
“+++” (≥50 = +++)

Which Peptide exchange value is on record for 93 (LLQAIKLYL; listed as Homo sapiens) [compound 93] ?
“++” (≥20% = ++)

Report Peptide exchange for 103 (TLAEEVVAL; listed as Homo sapiens) [compound 103] please.
“+++” (≥50 = +++)

# query: Peptide exchange of entry 109 (IILSILEQA; listed as Homo sapiens) [compound 109]
“++++” (≥75% = ++++)

Look up Peptide exchange: 310 (FLVDTPLARA; listed as Homo sapiens) [compound 310]
“++++” (≥75% = ++++)

Give the measured Peptide exchange of 15 (VLLTFKIFL; listed as Homo sapiens) [compound 15] .
“++” (≥20% = ++)

Request the reported Peptide exchange associated with 269 (RVLEVGALQAV; listed as Homo sapiens) [compound 269]
“++” (≥20% = ++)

Name the recorded Peptide exchange for 600 (ALAAPDIVPAL; listed as Homo sapiens) [compound 600] .
“+++” (≥50 = +++)

GET /values?readout=Peptide exchange&item= 495 (FIFSEKPVFV; listed as Homo sapiens) [compound 495]
“+++” (≥50 = +++)

Sample 606 (ALWETEVYI; listed as Homo sapiens) [compound 606] — what was its Peptide exchange?
“+++” (≥50 = +++)

Give its Peptide exchange value. Item: 592 (RLLSAAENFL; listed as Homo sapiens) [compound 592]
“+++” (≥50 = +++)

Can you share its Peptide exchange? I mean this substance: 497 (GLLEKLTAI; listed as Homo sapiens) [compound 497]
“+++” (≥50 = +++)

Item under review: 237 (ALLEASGTLLL; listed as Homo sapiens) [compound 237] . Reported Peptide exchange?
“++++” (≥75% = ++++)

Endpoint output: Peptide exchange of 132 (LLVEQPPLAGV; listed as Homo sapiens) [compound 132] . Value?
“+++” (≥50 = +++)

Query (substance): 307 (ALPVSLPQI; listed as Homo sapiens) [compound 307] ; field requested: Peptide exchange
“+++” (≥50 = +++)

Find the recorded Peptide exchange belonging to 334 (TLTKVLVAL; listed as Homo sapiens) [compound 334] and report it.
“+++” (≥50 = +++)

Item under review: 593 (GLPRFGIEMV; listed as Homo sapiens) [compound 593] . Reported Peptide exchange?
“+++” (≥50 = +++)

Returns the measured Peptide exchange for the input substance. Input: 195 (GLFADLLPRL; listed as Homo sapiens) [compound 195]
“+++” (≥50 = +++)

Param item = 558 (GLLENIPRV; listed as Homo sapiens) [compound 558] ; retrieve measured Peptide exchange.
“+++” (≥50 = +++)
